molecular target: α2A adrenergic receptors (Homo sapiens)
Sequence (P08913 whole entry): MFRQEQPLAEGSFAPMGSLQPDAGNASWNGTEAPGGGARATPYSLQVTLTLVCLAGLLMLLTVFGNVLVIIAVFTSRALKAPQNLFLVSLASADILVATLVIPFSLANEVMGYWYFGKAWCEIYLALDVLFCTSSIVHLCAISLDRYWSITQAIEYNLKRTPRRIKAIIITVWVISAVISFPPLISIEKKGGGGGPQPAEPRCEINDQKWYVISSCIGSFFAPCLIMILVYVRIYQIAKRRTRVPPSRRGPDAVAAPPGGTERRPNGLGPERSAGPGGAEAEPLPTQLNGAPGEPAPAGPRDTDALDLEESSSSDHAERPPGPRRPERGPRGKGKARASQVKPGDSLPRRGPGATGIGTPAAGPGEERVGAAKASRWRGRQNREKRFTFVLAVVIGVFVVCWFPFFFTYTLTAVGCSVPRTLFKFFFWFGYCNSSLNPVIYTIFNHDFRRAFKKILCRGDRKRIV
MEASURED_ATTRIBUTE: IC50 (µM)
Numbers only, in µM.

O=C(c1ccc(F)cc1)N1CCc2nc(COc3ccccc3)oc2C1 [VU0409551] has a reported IC50 of 8.9

====

test system: rats; assay: Amphetamine-induced hyperlocomotion; assay type: in vivo, rat; conditions: read-out: in vivo EC50 for reversal of AHL; terminal (1.5 hr) unbound brain concentration, individual animal concentration-efficacy data from all dose groups
MEASURED_ATTRIBUTE: EC50 (nM)
Answers are plain numbers, in nM.

O=C(c1ccc(F)cc1)N1CCc2nc(COc3ccccc3)oc2C1 [VU0409551] has a reported EC50 of 97

Sourced from paper PMC4443790
